The following molecules were reported with IC50 values on UniProt:Q96KS0 in different studies.
Sequence (Q96KS0 whole entry): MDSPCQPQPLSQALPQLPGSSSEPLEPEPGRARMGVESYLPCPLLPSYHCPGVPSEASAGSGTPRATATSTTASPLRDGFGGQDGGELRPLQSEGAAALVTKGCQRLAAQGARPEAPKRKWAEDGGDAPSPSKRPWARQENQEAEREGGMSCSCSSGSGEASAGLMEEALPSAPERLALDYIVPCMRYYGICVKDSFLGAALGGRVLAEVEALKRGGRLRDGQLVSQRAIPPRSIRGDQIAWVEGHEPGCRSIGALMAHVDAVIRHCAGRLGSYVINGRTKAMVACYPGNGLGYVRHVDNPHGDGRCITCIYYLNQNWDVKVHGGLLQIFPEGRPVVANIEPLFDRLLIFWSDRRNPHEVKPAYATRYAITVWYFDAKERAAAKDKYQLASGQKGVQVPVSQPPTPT
Consider the cut-off 600 µM. If the recorded IC50 is strictly smaller, the label is t; if not, the label is f.

>>> discrete_label("O=C(O)C(S)c1cccc(O)c1 (stereo unspecified)")
"t"
>>> discrete_label("COc1ccc(C(NC(=O)c2cnc(-c3cccnn3)nc2O)c2ccc(OC)cc2)cc1")
"t"
>>> discrete_label("O=C(O)c1ccnc(C(=O)O)c1")
"f"
>>> discrete_label("O=C(O)CCC(=O)O")
"f"
>>> discrete_label("O=C(O)CNC(=O)c1ccccc1O")
"f"
>>> discrete_label("O=C(O)/C=C/C(=O)O")
"t"
